# Test Target: Human Kv1.5 channels (Homo sapiens, UniProt P22460)
# Sequence (P22460 whole entry): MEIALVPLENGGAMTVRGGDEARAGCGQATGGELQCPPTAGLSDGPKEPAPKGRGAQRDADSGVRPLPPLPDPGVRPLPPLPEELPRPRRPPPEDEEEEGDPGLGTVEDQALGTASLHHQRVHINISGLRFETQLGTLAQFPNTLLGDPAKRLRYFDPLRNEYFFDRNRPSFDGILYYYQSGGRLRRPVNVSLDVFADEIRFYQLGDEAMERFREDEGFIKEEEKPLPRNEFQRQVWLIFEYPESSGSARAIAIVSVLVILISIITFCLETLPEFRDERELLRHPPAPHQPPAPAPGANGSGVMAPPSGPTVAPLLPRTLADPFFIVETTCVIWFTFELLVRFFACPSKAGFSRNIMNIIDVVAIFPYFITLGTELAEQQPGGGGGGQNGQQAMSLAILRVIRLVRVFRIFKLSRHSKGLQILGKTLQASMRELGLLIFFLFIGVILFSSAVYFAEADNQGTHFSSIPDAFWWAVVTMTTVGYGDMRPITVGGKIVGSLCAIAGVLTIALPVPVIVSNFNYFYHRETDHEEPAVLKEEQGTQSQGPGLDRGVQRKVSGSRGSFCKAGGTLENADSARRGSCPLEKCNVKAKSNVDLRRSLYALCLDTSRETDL
# Experiment Notes: Activity on the Kv1.5 channel: two-microelectrode voltage clamp on Xenopus oocytes expressing Kv1.5
# Details: human Kv1.5 expressed in Xenopus oocytes, room temperature, Hill equation; read-out: Kv1.5 IC-50
Measured Attribute: IC50 (µM)
Respond numerically; units are µM and should not be typed.

Name the recorded IC50 of the item O=C1CCCN1[C@@H](c1ccc(F)cc1)[C@H](OCCCC(F)(F)F)c1cccnc1 (racemic) in your answer. 6

Name the recorded IC50 of the item N#Cc1ccc(OC(c2ccnc3ccccc23)C(c2ccc(F)cc2)N2CCCC2=O)cc1 (stereo not shown) in your answer. 4.6

Name the recorded IC50 of the item N#Cc1ccc(O[C@@H](c2ccnc3ccccc23)[C@H](c2ccc(F)cc2)N2CCCC2=O)cc1 (racemic) in your answer. 9.6

Name the recorded IC50 of the item C=CO[C@H](c1ccc(F)c(F)c1)[C@H](c1ccc(F)cc1)N1CCCC1=O in your answer. 0.9

Name the recorded IC50 of the item N#Cc1ccc(O[C@H](c2ccc(F)cc2)[C@H](c2cccc3cccnc23)N2CCCC2=O)cc1 (racemic) in your answer. 1.1

Name the recorded IC50 of the item O=C1CCCN1[C@@H](c1cccc2cccnc12)[C@H](OCC1CC1)c1ccc(F)cc1 (racemic) in your answer. 0.5

Name the recorded IC50 of the item COc1ccc([C@@H](Oc2ccc(C(C)=O)cc2)[C@H](c2ccc(F)cc2)N2CCCC2=O)cc1 (racemic) in your answer. 9.7

* * *

Let's look at some molecules and their measured pIC50.
# Test Target: Human Kv1.5 channels (Homo sapiens, UniProt P22460)
# Experiment Notes: Activity on the Kv1.5 channel: two-microelectrode voltage clamp on Xenopus oocytes expressing Kv1.5
# Details: human Kv1.5 expressed in Xenopus oocytes, room temperature, Hill equation; read-out: Kv1.5 IC-50
Here pIC50 is given on a logarithmic scale as minus log10 of the concentration in mol/L.

molecule="O=C1CCCN1[C@@H](c1ccc(F)cc1)[C@H](OCC1CC1)c1ccc(F)cc1 (racemic)" measured=6.52
molecule=CCCO[C@@H](c1ccccc1)[C@@H](c1ccccc1)N1CCCS1(=O)=O measured=5.77
molecule="N#Cc1ccc(O[C@H](c2ccc(F)c(F)c2)[C@@H](c2ccc(F)cc2)N2CCCC2=O)cc1 (racemic)" measured=5.27
molecule="O=C1CCCN1[C@@H](c1ccc(F)cc1)[C@H](OCC1CC1)c1ccc(OC(F)(F)F)cc1 (racemic)" measured=6.05
molecule="O=C1CCCCN1[C@@H](c1ccc(F)cc1)[C@H](OCC1CC1)c1cccc2cccnc12 (racemic)" measured=5.39
molecule="CCO[C@H](c1ccc(Cl)cc1)[C@H](c1ccccc1)N1CCCC1=O (racemic)" measured=6.30

Name the recorded pIC50 of the item C#CCO[C@H](c1ccc(F)c(F)c1)[C@H](c1ccc(F)cc1)N1C(=O)CCC1C (mixture of isomers) in your answer. 6.00

Name the recorded pIC50 of the item O=C1CCCCN1[C@H](c1ccccc1)[C@@H](OCC1CC1)c1ccccc1 in your answer. 5.85

Name the recorded pIC50 of the item O=C1CCCN1[C@@H](c1ccc(F)cc1)[C@H](OCc1ccc(Cl)cc1)c1ccc(F)c(F)c1 (racemic) in your answer. 5.25

Name the recorded pIC50 of the item COc1ccc(CO[C@H](c2ccc(Cl)cc2)[C@H](c2ccccc2)N2CCCC2=O)cc1 (racemic) in your answer. 5.89

* * *

# Test Target: Human TASK-1 channels (UniProt O35111)
# Experiment Notes: Activity on the TASK-1 channel: two-microelectrode voltage clamp on Xenopus oocytes expressing TASK-1
# Assay type: cell-based
# Details: TASK-1 expressed in Xenopus oocytes, room temperature, Hill equation; read-out: mTask-1 IC-50
Measured Attribute: pIC50
Here pIC50 is given on a logarithmic scale as minus log10 of the concentration in mol/L.

Past entries and their recorded results:
molecule="CO[C@H](c1ccc(Cl)cc1)[C@H](c1ccccc1)N1CCCC1=O (racemic)" measured_attribute=pIC50 measured=5.27
molecule="N#Cc1ccc(O[C@@H](c2cccc3cccnc23)[C@@H](c2ccc(F)cc2)N2CCCC2=O)cc1 (racemic)" measured_attribute=pIC50 measured=6.40

Proceeding to the next molecule to report its pIC50.
Name the recorded pIC50 of the item N#Cc1ccc(O[C@H](c2ccc(F)c(F)c2)[C@H](c2ccc(F)cc2)N2CCCC2=O)cc1 (racemic) in your answer. 5.64

* * *

# Test Target: Human Kv1.5 channels (Homo sapiens)
# Experiment Notes: Activity on the Kv1.5 channel: two-microelectrode voltage clamp on Xenopus oocytes expressing Kv1.5
# Details: human Kv1.5 expressed in Xenopus oocytes, room temperature, Hill equation; read-out: Kv1.5 IC-50
Measured Attribute: IC50 (nM)
Respond numerically; units are nM and should not be typed.

molecule="CCCO[C@H](c1ccc(Cl)cc1)[C@H](c1ccccc1)N1CCCCC1=O (racemic)" measured=210
molecule="O=C1CCCN1[C@@H](c1ccccc1)[C@H](OC1CC1)c1ccccc1 (racemic)" measured=600

Name the recorded IC50 of the item CCCO[C@H](c1ccc(F)cc1)[C@@H](c1ccc(F)cc1)N1CCCC1=O (racemic) in your answer. 900

Name the recorded IC50 of the item COc1ccc([C@@H](OCC2CC2)[C@H](c2ccc(F)cc2)N2CCCC2=O)cc1 (racemic) in your answer. 1000

Name the recorded IC50 of the item O=C1CCCCN1[C@@H](c1ccc(F)cc1)[C@H](OCC1CC1)c1ccc(F)c(F)c1 (racemic) in your answer. 330

Name the recorded IC50 of the item CCCO[C@H](c1ccccc1)[C@H](c1ccccc1)N1CCCC1=O in your answer. 160

Name the recorded IC50 of the item O=C1CCCN1[C@H](c1ccccc1)[C@H](OCC1CC1)c1ccc(F)cc1 (racemic) in your answer. 800

Name the recorded IC50 of the item N#Cc1ccc(O[C@H](c2cccnc2)[C@H](c2cccc3cccnc23)N2CCCC2=O)cc1 (racemic) in your answer. 2300

Name the recorded IC50 of the item O=C1CCCN1[C@@H](c1ccc(F)cc1)[C@H](OCCCC(F)(F)F)c1ccc(F)c(F)c1 (racemic) in your answer. 1000

Name the recorded IC50 of the item COc1ccc(CO[C@H](c2ccc(F)cc2)[C@@H](c2ccccc2)N2CCCC2=O)cc1 (racemic) in your answer. 5200

Name the recorded IC50 of the item C[C@@](c1ccccc1)([C@H](OCC1CC1)c1ccccc1)N1CCCC1=O (racemic) in your answer. 1400

Name the recorded IC50 of the item COc1ccc(CO[C@H](c2ccc(F)c(F)c2)[C@H](c2ccc(F)cc2)N2CCCC2=O)cc1 (racemic) in your answer. 2100

Name the recorded IC50 of the item CCCO[C@@H](c1ccccc1)[C@@H](c1ccccc1)N1CCCC1=O in your answer. 400

Name the recorded IC50 of the item CCCO[C@@H](c1ccc(Cl)cc1)[C@@H](c1ccccc1)N1CCCC1=O (racemic) in your answer. 920

Name the recorded IC50 of the item O=C1CCCN1[C@@H](c1ccccc1)[C@H](OCc1ccccc1)c1ccc(Cl)cc1 (racemic) in your answer. 2100

Name the recorded IC50 of the item CS(=O)(=O)c1ccc([C@@H](OCC2CC2)[C@H](c2ccc(F)cc2)N2CCCC2=O)cc1 (racemic) in your answer. 1800

Name the recorded IC50 of the item CCCO[C@@H](c1ccc(Cl)cc1)[C@H](c1ccccc1)N1CCCC1=O (racemic) in your answer. 900

Name the recorded IC50 of the item N#Cc1ccc(O[C@H](c2ccc(Cl)cc2)[C@H](c2ccccc2)N2CCCC2=O)cc1 (racemic) in your answer. 1000

Name the recorded IC50 of the item COc1ccc(CO[C@H](c2ccc(F)cc2)[C@@H](c2ccc(F)cc2)N2CCCC2=O)cc1 (racemic) in your answer. 5300

Name the recorded IC50 of the item CO[C@H](c1ccccc1)[C@H](c1ccccc1)N1CCCC1=O in your answer. 3600

Name the recorded IC50 of the item COCCO[C@H](c1ccc(Cl)cc1)[C@H](c1ccccc1)N1CCCC1=O (racemic) in your answer. 1000

Name the recorded IC50 of the item O=C1CCCN1[C@@H](c1cccnc1)[C@H](OCC1CC1)c1ccc(F)cc1 (racemic) in your answer. 800

Name the recorded IC50 of the item N#Cc1ccc(O[C@H](c2ccc(F)cc2)[C@H](c2ccc(F)cc2)N2CCCC2=O)cc1 (racemic) in your answer. 3800

Name the recorded IC50 of the item CC(OCC1CC1)(c1ccccc1)C(c1ccccc1)N1CCCC1=O (stereo not shown) in your answer. 1200

Name the recorded IC50 of the item O=C1CCCN1[C@@H](c1ccc(F)cc1)[C@H](OCC1CC1)c1ccc(F)c(F)c1 (racemic) in your answer. 600

Name the recorded IC50 of the item CCCO[C@H](c1ccccn1)[C@H](c1ccccc1)N1CCCC1=O (racemic) in your answer. 2700

Name the recorded IC50 of the item CCCO[C@H](c1ccccc1)[C@H](c1ccccc1)N1CCCS1(=O)=O in your answer. 600

Name the recorded IC50 of the item O=C1CCCN1[C@@H](c1ccc(F)cc1)[C@H](OCC1CC1)c1ccc(C(F)(F)F)cc1 (racemic) in your answer. 1400

Name the recorded IC50 of the item O=C1CCCN1[C@@H](c1ccccc1)[C@H](Oc1ccccn1)c1ccccc1 (racemic) in your answer. 2300

Name the recorded IC50 of the item COc1ccc(CO[C@@H](c2ccccc2)[C@@H](c2ccccc2)N2CCCCC2=O)cc1 in your answer. 6600
